Literature roundup of Prolyl endopeptidase (Sus scrofa) data, read-out IC50.
Reported Endpoint: IC50 (nM)

# Sample Smiles, Reported Endpoint, Recorded Value
data = [
    ("O=C(CCC(=O)N1CCC[C@H]1C(=O)N1CCCC1)N1CCCC1", "IC50", 110),
    ("CC(C)(C)OC(=O)NCc1cn([C@H]2C[C@@H](C(=O)N3CCCC3)N(C(=O)CCCc3ccccc3)C2)nn1", "IC50", 32),
    ("O=C(c1cscn1)[C@@H]1CCCN1C(=O)[C@@H]1CCCN1CCCc1ccccc1", "IC50", 13),
    ("O=C(c1cccs1)[C@@H]1CCCN1C(=O)[C@@H]1CCCN1C(=O)OCc1ccccc1", "IC50", 2020),
    ("O=C([C@@H]1C[C@H](n2cc(COCc3ccccc3)nn2)CN1C(=O)CCCc1ccccc1)N1CCCC1", "IC50", 131),
]

I: O=C([C@@H]1C[C@H](n2cc(C3CCCCC3)nn2)CN1C(=O)CCCc1ccccc1)N1CCCC1
II: N#C[C@@H]1CCCN1C(=O)[C@@H]1CCCN1C(=O)CCC(=O)N1CCCC1
Query: Returns: the argument ( I or II ) having the larger IC50. # answer = label of selected item
Result: I
(I: 147 nM, II: 2.9 nM)

I: C[Si](C)(C)c1cn([C@H]2C[C@@H](C(=O)N3CCCC3)N(C(=O)OCc3ccccc3)C2)nn1
II: O=C(c1ccccc1C(=O)N1CCC[C@H]1C(=O)N1CCCC1)N1CCCC1
Query: I'm curious whether I or II has the smaller IC50 number. Which is it? # answer = label of selected item
Result: I
(I: 956 nM, II: 19000 nM)
